- System: AuroraB (Homo sapiens)
- Construct: 20 μL of AuroraB FL H is for a final volume of 41 μL; His
- Sequence (Q96GD4 whole entry): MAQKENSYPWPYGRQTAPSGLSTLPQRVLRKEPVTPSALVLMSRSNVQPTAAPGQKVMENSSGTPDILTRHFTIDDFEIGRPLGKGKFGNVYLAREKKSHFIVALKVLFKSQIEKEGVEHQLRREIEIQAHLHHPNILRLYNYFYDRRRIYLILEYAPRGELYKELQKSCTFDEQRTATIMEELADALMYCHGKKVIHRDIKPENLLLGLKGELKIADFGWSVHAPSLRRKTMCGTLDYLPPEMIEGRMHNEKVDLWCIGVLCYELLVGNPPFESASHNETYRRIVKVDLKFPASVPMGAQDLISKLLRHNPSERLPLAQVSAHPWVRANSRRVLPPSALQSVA
- Measurement Protocol: AuroraB Homogeneous Time Resolved Fluorescent (HTRF) kinase assay
- Type: biochemical
- Measurement Conditions: average; read-out: AurB_IC50_IP (uM Avg)
- Description: AuroraB-Homogeneous Time Resolved Fluorescent (HTRF) Kinase Assay: The AuroraB HTRF assay begins with AuroraB in the presence of ATP phosphorylating the biotinylated peptide Histone H3. […] The assay is quenched and stopped with 160 μL of detection reagent. […] Added to this buffer prior to reading is Steptavidin allophycocyanin (SA-APC) at a final conc in the assay of 0.001 mg/mL, and europilated anti-phosphoHistoneH3 Ab (Eu-anti-HisH3) at a final conc of 0.064 nM. […]
Metric: IC50 (µM)

Input Smiles: COc1cnc2c(Sc3ccc(Nc4nncc5ccccc45)cc3)ccnc2c1
Relation Symbol: =
Readout Number: 0.02
--
Input Smiles: Cc1ccc(-c2nnc(Nc3ccc(Sc4ccnc5ccncc45)cc3)c3ccccc23)nc1
Relation Symbol: =
Readout Number: 0.004
--
Input Smiles: Cc1ccc(-c2nnc(Nc3ccc(Sc4ccnc5ccoc45)cc3)c3ccccc23)cc1N
Relation Symbol: >
Readout Number: 125
--
Input Smiles: COc1cnc2c(Oc3ccc(Nc4nnc(-c5ccc(C)c(N)c5)c5cc(F)c(F)cc45)cc3)ccnc2c1
Relation Symbol: =
Readout Number: 0.02
--
Input Smiles: COc1ccc(-c2nnc(Nc3ccc(Sc4ccnc5cc(OC)cnc45)cc3)c3ccccc23)cc1
Relation Symbol: =
Readout Number: 0.012
--
Input Smiles: COc1cnc2c(Oc3ccc(Nc4nnc(-c5ccccc5)c5c4CCC5)cc3)ccnc2c1
Relation Symbol: =
Readout Number: 0.057
--
Input Smiles: COc1cnc2c(Sc3ccc(Nc4nnc(-c5ccc6nonc6c5)c5ccccc45)cc3)ccnc2c1
Relation Symbol: =
Readout Number: 0.032
--
Input Smiles: COc1cnc2c(Sc3ccc(Nc4nnc(NCCc5ccccn5)c5ccccc45)cc3)ccnc2c1
Relation Symbol: =
Readout Number: 0.111
--
Input Smiles: COc1cnc2c(Oc3ccc(Nc4nnc(C5CC5)c5ccccc45)cc3)ccnc2c1
Relation Symbol: =
Readout Number: 0.044
--
Input Smiles: COc1cnc2c(Sc3ccc(Nc4nnc(N5CCCC5)c5ccccc45)cc3)ccnc2c1
Relation Symbol: =
Readout Number: 0.025
--
Input Smiles: COc1cnc2c(Sc3ccc(Nc4nnc(-c5ccccc5)c5ccccc45)cn3)ccnc2c1
Relation Symbol: =
Readout Number: 0.031
--
Input Smiles: COc1cnc2c(Sc3ccc(Nc4nnc(-c5ccn(C)c(=O)c5)c5ccccc45)cc3)ccnc2c1
Relation Symbol: >
Readout Number: 125
--
Input Smiles: COc1cc2nccc(Oc3ccc(Nc4nnc(-c5cccc(C)n5)c5ccccc45)cc3)c2cc1OC
Relation Symbol: =
Readout Number: 0.007
--
Input Smiles: COc1ccc2c(Oc3ccc(Nc4nnc(-c5ccccc5)c5ccccc45)cc3)ccnc2c1
Relation Symbol: =
Readout Number: 0.012
--
Input Smiles: COc1cnc2c(Nc3cnc(Nc4nnc(-c5ccccc5)c5ccccc45)nc3)ccnc2c1
Relation Symbol: =
Readout Number: 0.004
--
Input Smiles: COc1cc2nccc(Sc3ccc(Nc4nnc(-c5ccccc5)c5ccccc45)cc3)c2nc1OC
Relation Symbol: =
Readout Number: 0.681
--
Input Smiles: COc1ccc2nccc(Sc3ccc(Nc4nnc(-c5ccccc5)c5ccccc45)cc3)c2c1
Relation Symbol: =
Readout Number: 0.011
--
Input Smiles: COc1cnc2c(Oc3ccc(Nc4nnc(N5CCSCC5)c5ccccc45)cc3)ccnc2c1
Relation Symbol: =
Readout Number: 0.015
--
Input Smiles: FC(F)(F)Oc1ccc2c(Sc3ccc(Nc4nnc(-c5ccccc5)c5ccccc45)cc3)ccnc2c1
Relation Symbol: =
Readout Number: 0.333
--
Input Smiles: O=C(c1cc2nccc(Sc3ccc(Nc4nnc(-c5ccc(Cl)cc5)c5ccccc45)cc3)c2s1)N1CCOCC1
Relation Symbol: =
Readout Number: 0.057

Every entry's value here was drawn from patent US8557816B2.
